- SYSTEM: T1, hPRLR.mFc (soluble dimeric human PRLR) (human)
- T1 construct: dimeric PRLR construct
- T1 chain: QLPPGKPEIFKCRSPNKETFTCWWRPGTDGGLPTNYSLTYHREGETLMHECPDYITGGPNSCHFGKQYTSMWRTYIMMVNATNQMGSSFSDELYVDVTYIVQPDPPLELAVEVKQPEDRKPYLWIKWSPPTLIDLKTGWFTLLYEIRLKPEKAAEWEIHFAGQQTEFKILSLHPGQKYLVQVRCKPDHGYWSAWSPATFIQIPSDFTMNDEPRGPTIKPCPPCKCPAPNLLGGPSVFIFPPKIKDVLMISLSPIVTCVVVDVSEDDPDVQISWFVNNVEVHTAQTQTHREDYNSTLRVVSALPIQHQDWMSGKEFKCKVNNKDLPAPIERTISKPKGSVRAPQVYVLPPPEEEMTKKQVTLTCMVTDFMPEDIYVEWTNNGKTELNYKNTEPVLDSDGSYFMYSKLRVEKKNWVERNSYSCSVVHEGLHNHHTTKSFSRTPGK
- ASSAY EXPLANATION: SPR (Biacore), antibody capture, 37 C
Exercise: for every item that follows, state its recorded T 1/2.
One number for each entry, in h.

1) H1H6793P (antibody, human IgG1, V domains shown, human IgG1 Fc (H1H)) VH: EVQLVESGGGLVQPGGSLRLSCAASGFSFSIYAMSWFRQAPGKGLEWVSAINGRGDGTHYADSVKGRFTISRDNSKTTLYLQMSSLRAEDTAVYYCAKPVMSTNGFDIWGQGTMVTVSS VL: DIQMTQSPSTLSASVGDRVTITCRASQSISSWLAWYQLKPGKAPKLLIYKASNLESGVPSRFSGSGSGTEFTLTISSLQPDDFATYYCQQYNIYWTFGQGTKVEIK ... 1.35

Quick one: give me T 1/2 for each item below, same order please.
1. H1H6765P (antibody, human IgG1, V domains shown, human IgG1 Fc (H1H)) VH: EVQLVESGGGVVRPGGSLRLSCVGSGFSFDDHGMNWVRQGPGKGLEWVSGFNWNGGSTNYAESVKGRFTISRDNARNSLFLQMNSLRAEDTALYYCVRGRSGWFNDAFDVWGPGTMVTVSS VL: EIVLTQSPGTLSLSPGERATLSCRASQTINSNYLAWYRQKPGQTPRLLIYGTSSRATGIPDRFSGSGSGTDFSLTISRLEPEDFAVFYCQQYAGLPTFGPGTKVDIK
2. H1H6967N (antibody, human IgG1, V domains shown, also called H2M6967N) VH: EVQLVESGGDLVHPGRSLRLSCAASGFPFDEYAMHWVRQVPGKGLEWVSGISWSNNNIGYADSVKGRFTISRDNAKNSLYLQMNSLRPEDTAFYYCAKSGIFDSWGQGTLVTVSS VL: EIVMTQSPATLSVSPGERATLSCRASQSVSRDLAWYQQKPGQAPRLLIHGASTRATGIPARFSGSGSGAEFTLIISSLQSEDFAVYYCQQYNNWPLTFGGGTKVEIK
3. H1H6790P (antibody, human IgG1, V domains shown, human IgG1 Fc (H1H)) VH: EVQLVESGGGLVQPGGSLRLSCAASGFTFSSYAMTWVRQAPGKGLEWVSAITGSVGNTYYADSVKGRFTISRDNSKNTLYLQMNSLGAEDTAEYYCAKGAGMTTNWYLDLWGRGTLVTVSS VL: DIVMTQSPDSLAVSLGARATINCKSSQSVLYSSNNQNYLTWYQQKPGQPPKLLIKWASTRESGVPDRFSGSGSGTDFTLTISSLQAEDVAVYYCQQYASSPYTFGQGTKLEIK
4. H1H6781P (antibody, human IgG1, V domains shown, human IgG1 Fc (H1H)) VH: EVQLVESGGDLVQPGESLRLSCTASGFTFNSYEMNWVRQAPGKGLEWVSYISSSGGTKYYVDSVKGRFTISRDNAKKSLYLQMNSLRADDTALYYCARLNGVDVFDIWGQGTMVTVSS VL: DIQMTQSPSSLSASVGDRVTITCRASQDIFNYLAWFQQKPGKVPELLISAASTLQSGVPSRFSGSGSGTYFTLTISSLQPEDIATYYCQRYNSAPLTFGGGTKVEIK
5. H1H6960N (antibody, human IgG1, V domains shown, also called H2M6960N) VH: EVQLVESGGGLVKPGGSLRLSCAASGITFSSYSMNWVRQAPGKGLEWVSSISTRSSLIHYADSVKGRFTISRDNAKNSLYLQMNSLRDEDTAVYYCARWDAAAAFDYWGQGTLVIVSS VL: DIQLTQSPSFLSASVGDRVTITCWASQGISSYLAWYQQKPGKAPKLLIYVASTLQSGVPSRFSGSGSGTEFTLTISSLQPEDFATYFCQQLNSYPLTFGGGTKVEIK

1.87
1.98
0.967
1.95
1.31
